- target_system: T1, calcitonin receptor (hCTR) (human, UniProt P30988 25-474)
- T1 sequence (looked up): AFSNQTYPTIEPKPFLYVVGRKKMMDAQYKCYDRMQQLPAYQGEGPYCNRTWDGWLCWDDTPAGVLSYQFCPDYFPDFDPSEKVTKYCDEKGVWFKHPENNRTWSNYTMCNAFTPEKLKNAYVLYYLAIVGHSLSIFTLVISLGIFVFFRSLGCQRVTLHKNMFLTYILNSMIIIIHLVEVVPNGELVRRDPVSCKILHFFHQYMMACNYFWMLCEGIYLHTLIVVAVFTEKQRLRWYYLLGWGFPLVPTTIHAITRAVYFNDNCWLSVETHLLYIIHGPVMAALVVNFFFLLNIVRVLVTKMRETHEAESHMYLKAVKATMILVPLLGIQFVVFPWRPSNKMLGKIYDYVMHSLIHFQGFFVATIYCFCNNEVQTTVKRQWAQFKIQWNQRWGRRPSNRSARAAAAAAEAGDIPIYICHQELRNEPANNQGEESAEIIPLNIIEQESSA
- run_description: cell-based or functional assay
Square brackets hold non-standard residues; d marks the D form. * marks the point of attachment. C18 diacid = O=C(O)CCCCCCCCCCCCCCCCC(=O)*; AEEA = NCCOCCOCC(=O)O
observation_type: EC50, CRE-luciferase reporter in calcitonin receptor/CRE-luc CHO cells, 24 h (pM)
Give bare numbers, in pM.

The following binders have reported results that may help.
1) ASQLSTAVLGRLSDELHRLQDYPRTDVGSGSP (not fully specified; N terminus: C20 diacid + βAsp) [M12] | 73
2) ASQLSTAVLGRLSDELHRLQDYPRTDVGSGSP (not fully specified; N terminus: C20 diacid + Trx) [M14] | 587

Now take the following binder into account.
### Prompt Any idea what its EC50, CRE-luciferase reporter in calcitonin receptor/CRE-luc CHO cells, 24 h is? The binder is {C18 diacid}-E[AEEA][AEEA]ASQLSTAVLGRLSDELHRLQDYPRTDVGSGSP-NH2 [M24]
### Response 81
